Each item that follows carries a reported IC50.
# Tested on: WM35 radial growth phase melanoma cells
# testName: Cell viability, MTS assay
# Assay type: cell-based
# conditionDetails: Homo sapiens, WM35, 48 h
Unit µM implied. Number only.

{"compound": "NC(CCC(=O)NC(CS[Se]Cc1cc(-c2ccccc2)n(-c2ccc(S(N)(=O)=O)cc2)n1)C(=O)NCC(=O)O)C(=O)O (centres unmarked)", "observedProperty": "IC50", "u": "µM", "assayResult": 4.1}

Now let's try a different one.
Reported IC50 ( Cc1ccc(-c2cc(C(F)(F)F)nn2-c2ccc(S(N)(=O)=O)cc2)cc1 [Celecoxib, reference compound] ) = 42.3

====

# Tested on: MiaPaca-2 (Pancreas)
# testName: IC50 for killing cancer cells
# Type: cell-based
# conditionDetails: Homo sapiens, MIA PaCa-2
observedProperty: pIC50
On this scale, pIC50 is minus log10 of a concentration expressed in M (mol/L).

Consider NC(CCC(=O)NC(CS[Se]Cc1cc(-c2ccccc2)n(-c2ccc(S(N)(=O)=O)cc2)n1)C(=O)NCC(=O)O)C(=O)O (centres unmarked) [Selenocoxib-1-GSH, selenocoxib-1-glutathione] . Its measured pIC50 is 4.88

====

# Test system: WM35 radial growth phase melanoma cells
# testName: Cell viability, MTS assay
# Format: cell-based
# conditionDetails: Homo sapiens, WM35, 72 h
Reported pIC50 values for the following molecules.
Would you please state pIC50, meaning minus log10 of the concentration in mol/L, as a bare number?

{"molecule": "NC(CCC(=O)NC(CS[Se]Cc1cc(-c2ccccc2)n(-c2ccc(S(N)(=O)=O)cc2)n1)C(=O)NCC(=O)O)C(=O)O (centres unmarked) [Selenocoxib-1-GSH, selenocoxib-1-glutathione]", "pIC50": 5.57}

According to the records, this molecule Cc1ccc(-c2cc(C(F)(F)F)nn2-c2ccc(S(N)(=O)=O)cc2)cc1 [Celecoxib, reference compound] displays pIC50 of 4.42
